Biological target: huNav1.7α+β1 (human, UniProt Q15858 1-1988; Q07699 19-218)
Test: cell-based or functional assay
REPORTED_PROPERTY: single pulse IC50 (nM)

Answered examples (3):
[[record]]
binder = "F010300948 (VHH, vs F0103275B05: S27P, I28V, S33R, N53P, N93R, A94W, T101I) VHH: EVQLVESGGGLVQPGGSLRLSCAASGPVFNINRMAWYRRAPGKQRELVASSTPGGSTNYADSVKGRFTISRDNAKRVYLQMNSLTPEDTAVYYCRWLLQPSIYDISRIYWGQGTLVTVSS"
units_symbol = "nM"
obs_value = 320

[[record]]
binder = "F010300659 (VHH, also called F0103275B05(S27P, I28V, S50Y, N53P, G55W, S56D, T57W, N93R, A94W)+FLAG3-HIS6) VHH: EVQLVESGGGLVQPGGSLRLSCAASGPVFNINSMAWYRRAPGKQRELVAYSTPGWDWNYADSVKGRFTISRDNAKRVYLQMNSLTPEDTAVYYCRWLLQPSIYDISRTYWGQGTLVTVSS"
units_symbol = "nM"
obs_value = 85

[[record]]
binder = "F010300477 (VHH, vs F0103275B05: A94W) VHH: EVQLVESGGGLVQPGGSLRLSCAASGSIFNINSMAWYRRAPGKQRELVASSTNGGSTNYADSVKGRFTISRDNAKRVYLQMNSLTPEDTAVYYCNWLLQPSIYDISRTYWGQGTLVTVSS"
units_symbol = "nM"
obs_value = 96


[I] F010300990 (VHH, vs F0103275B05: S27P, I28V, S33R, S50Y, N53P, T101I) VHH: EVQLVESGGGLVQPGGSLRLSCAASGPVFNINRMAWYRRAPGKQRELVAYSTPGGSTNYADSVKGRFTISRDNAKRVYLQMNSLTPEDTAVYYCNALLQPSIYDISRIYWGQGTLVTVSS
[II] F010300631 (VHH, vs F0103275B05: S27P, I28V, S50Y, N53P, N93R) VHH: EVQLVESGGGLVQPGGSLRLSCAASGPVFNINSMAWYRRAPGKQRELVAYSTPGGSTNYADSVKGRFTISRDNAKRVYLQMNSLTPEDTAVYYCRALLQPSIYDISRTYWGQGTLVTVSS
Identify the item whose single pulse IC50 is the smaller number: I or II Select an item and report its label. II
(II: 73 nM, I: 250 nM)
